target-system: cAMP and cAMP-inhibited cGMP 3',5'-cyclic phosphodiesterase 10A (Homo sapiens)
Sequence (Q9Y233 whole entry, the tested form may be a part): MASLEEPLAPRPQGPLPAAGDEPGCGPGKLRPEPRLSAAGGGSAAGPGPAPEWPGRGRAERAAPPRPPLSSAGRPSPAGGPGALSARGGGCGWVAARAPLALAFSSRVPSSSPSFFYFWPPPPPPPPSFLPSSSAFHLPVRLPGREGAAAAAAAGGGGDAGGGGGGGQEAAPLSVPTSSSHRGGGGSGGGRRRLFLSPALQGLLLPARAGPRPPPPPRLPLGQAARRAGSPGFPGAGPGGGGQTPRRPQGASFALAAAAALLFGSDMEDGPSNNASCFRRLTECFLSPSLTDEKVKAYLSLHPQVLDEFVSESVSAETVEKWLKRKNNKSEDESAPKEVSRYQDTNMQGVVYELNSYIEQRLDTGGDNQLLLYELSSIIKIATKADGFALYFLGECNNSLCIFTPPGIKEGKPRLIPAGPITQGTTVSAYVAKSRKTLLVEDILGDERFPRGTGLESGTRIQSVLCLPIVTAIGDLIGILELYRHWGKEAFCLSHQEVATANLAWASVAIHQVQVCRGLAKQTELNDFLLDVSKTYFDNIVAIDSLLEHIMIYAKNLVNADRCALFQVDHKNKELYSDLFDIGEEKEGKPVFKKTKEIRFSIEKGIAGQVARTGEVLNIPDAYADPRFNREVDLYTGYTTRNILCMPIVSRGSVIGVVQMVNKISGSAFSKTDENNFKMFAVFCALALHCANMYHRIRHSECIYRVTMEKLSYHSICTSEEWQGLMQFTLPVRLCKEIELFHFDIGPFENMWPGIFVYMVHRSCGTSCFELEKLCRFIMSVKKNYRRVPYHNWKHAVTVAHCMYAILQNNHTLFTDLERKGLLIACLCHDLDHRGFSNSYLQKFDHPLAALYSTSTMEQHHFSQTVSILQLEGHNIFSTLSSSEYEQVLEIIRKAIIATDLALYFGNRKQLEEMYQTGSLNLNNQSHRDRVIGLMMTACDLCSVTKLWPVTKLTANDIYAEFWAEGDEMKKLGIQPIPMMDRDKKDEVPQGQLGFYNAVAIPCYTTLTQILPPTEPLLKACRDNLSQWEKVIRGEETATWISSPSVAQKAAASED
assay-details: Inhibition of human recombinant PDE10A catalytic domain assessed reduction in [3H]cAMP hydrolysis preincubated with enzyme for 5 mins prior to substrate addition measured after 20 mins by scintillation proximity assay
pIC50: −log10 of the molar value.
Categories are assigned from the measured pIC50 using these intervals: label 0: < 6; label 1: ≥ 6 and < 7; label 2: ≥ 7

Please review the entries below; each comes with its answer.
compound-smiles: COc1cccc2ccc(COc3ccc(-c4nn(C)cc4-c4ccncc4)cc3)nc12
discrete-label: label 2
--
compound-smiles: COc1ccc2nc(CNc3ccc(-c4c(-c5ccncc5)cnn4C)cc3)ccc2c1
discrete-label: label 0
--
compound-smiles: COc1ccc2nc(CSc3ccc(-c4c(-c5ccncc5)cnn4C)cc3)ccc2c1
discrete-label: label 1

Task: // return the class label for COc1ccc2nc(COc3ccc(-c4nn(C)cc4-c4ccncc4)cc3)ccc2c1
Output: label 2

Task: Which band does COc1cc(CSc2ccc(-c3c(-c4ccncc4)cnn3C)cc2)nc2ccccc12 fall in?
Output: label 0

Task: Form field 'band' for COc1cc(CNc2ccc(-c3nn(C)cc3-c3ccncc3)cc2)nc2ccccc12
Output: label 0

Task: # bin label for COc1cc(CSc2ccc(-c3nn(C)cc3-c3ccncc3)cc2)nc2ccccc12
Output: label 1

Task: Category lookup for the compound COc1ccc2ccc(COc3ccc(-c4nn(C)cc4-c4ccncc4)cc3)nc2c1
Output: label 2

Task: Into which bin does this compound go? COc1ccc2nc(CSc3ccc(-c4nn(C)cc4-c4ccncc4)cc3)ccc2c1
Output: label 1

Task: Classify this compound: COc1cccc2ccc(CSc3ccc(-c4c(-c5ccncc5)cnn4C)cc3)nc12
Output: label 0

Task: Pick a category. Item: COc1ccc2nc(COc3ccc(-c4c(-c5ccncc5)cnn4C)cc3)ccc2c1
Output: label 2

Task: Where would COc1ccc2ccc(CSc3ccc(-c4nn(C)cc4-c4ccncc4)cc3)nc2c1 land among the classes by reported pIC50?
Output: label 1

Task: Hey, which category is COc1cc2ccccc2nc1COc1ccc(-c2c(-c3ccncc3)cnn2C)cc1 in, do you know?
Output: label 2

Task: Note: place this compound into its band. Item: COc1ccc2ccc(CNc3ccc(-c4c(-c5ccncc5)cnn4C)cc3)nc2c1
Output: label 0

Task: Categorize the following entry: COc1ccc2ccc(CSc3ccc(-c4c(-c5ccncc5)cnn4C)cc3)nc2c1
Output: label 1

Task: # classify by pIC50 band: COc1cccc2ccc(CNc3ccc(-c4c(-c5ccncc5)cnn4C)cc3)nc12
Output: label 0

Task: Hello team, could you let me know which band the following compound falls into: COc1cc(COc2ccc(-c3nn(C)cc3-c3ccncc3)cc2)nc2ccccc12
Output: label 2
